The following compounds are listed with their measured ΔTm values.
system: Bromodomain-containing protein 4 (Homo sapiens)
details: Compound concentration 20.0 uM
reportedEndpoint: ΔTm

> print(dat)
                                   compound  observedvalue
1  O=C1C(P(=O)(O)O)CCCN1O (stereo not given)       -1.37 °C
2  CCCCCn1c(C)c(C(=O)c2cccc3ccccc23)c2ccccc21       -0.88 °C
3  Nc1cccc(CNC(=O)c2ccc(Oc3ccc(OCc4cccc(F)c4)cc3)nc2)c1       -0.91 °C
4  O=[N+]([O-])c1cc(O)c(O)c([N+](=O)[O-])c1        2.94 °C
5  CCOC(=O)c1ccc(-c2ccc(OC(=O)N(C)Cc3cccc(-c4ccncc4)c3)cc2)cc1       -2.49 °C
